# target.entity: T1, PUF4 RNA-binding domain (Saccharomyces cerevisiae, UniProt P25339 537-888)
# T1 sequence: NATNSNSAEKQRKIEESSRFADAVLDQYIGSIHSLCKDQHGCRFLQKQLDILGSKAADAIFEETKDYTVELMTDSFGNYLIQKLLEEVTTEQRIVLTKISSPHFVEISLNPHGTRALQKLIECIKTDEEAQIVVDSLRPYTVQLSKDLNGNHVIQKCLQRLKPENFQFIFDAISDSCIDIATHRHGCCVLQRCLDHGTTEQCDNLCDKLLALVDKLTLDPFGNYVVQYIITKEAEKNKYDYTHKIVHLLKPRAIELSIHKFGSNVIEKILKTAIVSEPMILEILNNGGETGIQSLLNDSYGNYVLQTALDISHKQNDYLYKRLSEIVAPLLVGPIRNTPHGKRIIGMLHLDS
# test: Mg; RNA-MaP; 20 mM Na-HEPES pH 7.4, 30 mM KOAc, 0.75 mM MgCl2, 0.1% Tween-20, 5% glycerol, 0.1 mg/mL BSA, 2 mM DTT; 25 C; 0.0125-409.6 nM protein
# experimental.parameters: tags: N-His6-TEV cleaved; C-SNAP kept, Cy3B-labelled; label: tethered on chip by stalled RNA polymerase
measured.metric: pKd
Reminder that pKd means the negative base-10 logarithm of the concentration expressed in mol/L.

Consider the reported pKd for these binders:
binder	pKd
UCUCUUUGUAAAGCCUCUCUU (ssRNA) [Ic_S1_P4E.1_K4.1_C4.1_H4.1_A4.1_[T5A]_[T7G]_F4.1_[T8C]_[A9C]_T4.1]	5.99
Id_ii_S4_P3E.2_K3.1_C3.2_[T-1A]_H3.1_A3.1_F3.1_T3.2_[T9A]_[A10C] (ssRNA) RNA: UUUGACAACUGAUCGUUCUUUCUCAUGUAUAUAACUUCUUUCUCGAUCAGUUGUCUUU	8.33
Id_ii_S2_P3E.4_K3.3_C3.2_[C-2T]_[T-1A]_H3.3_A3.1_F3.1_T3.2 (ssRNA) RNA: UUUGAUUAAUAUGAUAUCGUUCUUUCUUAACACUAUAUAUUCUUUCUCGAUAUCAUAUUAAUCUUU	6.67
Id_ii_S2_P4E.2_K4.1_C4.2_[C-2T]_H4.1_A4.1_F4.1_T4.2_[T11C] (ssRNA) RNA: UUUGAUUAAUAUGAUAUCGUUCUUUCUUUUGUAUAUUAGCUUCUUUCUCGAUAUCAUAUUAAUCUUU	9.40

Next item in the queue.
**Q:** What value of measured pKd is listed for Id_ii_S4_P4E.2_K4.1_C4.2_[C-2T]_[T-1C]_H4.1_A4.1_F4.1_T4.2_[G10T]_[T11C] (ssRNA) RNA: UUUGACAACUGAUCGUUCUUUCUUCUGUAUAUUAUCUUCUUUCUCGAUCAGUUGUCUUU ?
**A:** 9.50
